Molecular target: Adenosine receptor A1 (Homo sapiens)
Assay: Allosteric enhancer activity at recombinant human A1 adenosine receptor expressed in CHO cells assessed as change in forskolin-induced cAMP production at 1 uM after 6 mins by radioimmunoassay
Assay type: functional, cell-based
Using Activity as the sorting value, the categories are bin 1: < -60%; bin 2: ≥ -60% and < -20%; bin 3: ≥ -20%

Please classify: Nc1scc(CN2CCN(c3ccncc3)CC2)c1C(=O)c1ccc(Cl)cc1
bin 3

Please classify: Nc1scc(CN2CCN(C3CCCCCC3)CC2)c1C(=O)c1ccc(Cl)cc1
bin 3

Please classify: Nc1scc(CN2CCN(c3c(F)cccc3F)CC2)c1C(=O)c1ccc(Cl)cc1
bin 1

Please classify: Nc1scc(CN2CCN(c3ccccc3C(F)(F)F)CC2)c1C(=O)c1ccc(Cl)cc1
bin 2

Please classify: Nc1scc(CN2CCN(c3cc(F)cc(F)c3)CC2)c1C(=O)c1ccc(Cl)cc1
bin 1

Please classify: Cc1sc(N)c(C(=O)c2cccc(C(F)(F)F)c2)c1C
bin 2

Please classify: Nc1scc(CN2CCN(c3cccnc3)CC2)c1C(=O)c1ccc(Cl)cc1
bin 3

Please classify: Nc1scc(CN2CCN(c3cc(Cl)cc(Cl)c3)CC2)c1C(=O)c1ccc(Cl)cc1
bin 1

Please classify: Nc1scc(CN2CCN(c3ccc(Cl)cc3F)CC2)c1C(=O)c1ccc(Cl)cc1
bin 2

Please classify: Nc1scc(CN2CCN(c3ccc(C(F)(F)F)cc3)CC2)c1C(=O)c1cccc(C(F)(F)F)c1
bin 2

Please classify: Nc1scc(CN2CCN(c3cccc4ccccc34)CC2)c1C(=O)c1ccc(Cl)cc1
bin 3

Please classify: Nc1scc(CN2CCN(c3cccc(Cl)c3Cl)CC2)c1C(=O)c1ccc(Cl)cc1
bin 2

Please classify: Nc1scc(CN2CCN(C(=O)c3ccc(Cl)cc3)CC2)c1C(=O)c1ccc(Cl)cc1
bin 2

Please classify: Nc1scc(CN2CCN(c3cccc(F)c3)CC2)c1C(=O)c1ccc(Cl)cc1
bin 1

Please classify: Nc1scc(CN2CCN(Cc3ccc(Cl)cc3)CC2)c1C(=O)c1ccc(Cl)cc1
bin 2

Please classify: Nc1scc(CN2CCN(c3c(Cl)cccc3Cl)CC2)c1C(=O)c1ccc(Cl)cc1
bin 3

Please classify: Nc1scc(CN2CCN(c3ccc(F)cc3F)CC2)c1C(=O)c1ccc(Cl)cc1
bin 1

Please classify: Nc1scc(CN2CCN(c3c(F)cccc3F)CC2)c1C(=O)c1cccc(C(F)(F)F)c1
bin 3

Please classify: Nc1scc(CN2CCN(c3ccc(Cl)cc3Cl)CC2)c1C(=O)c1ccc(Cl)cc1
bin 2

Please classify: Nc1scc(CN2CCN(C(=O)Cc3ccc(Cl)cc3)CC2)c1C(=O)c1ccc(Cl)cc1
bin 3

Please classify: Nc1scc(CN2CCN(C3CCCC3)CC2)c1C(=O)c1ccc(Cl)cc1
bin 3

Please classify: Nc1scc(CN2CCN(c3ccc(Cl)c(C(F)(F)F)c3)CC2)c1C(=O)c1ccc(Cl)cc1
bin 2

Please classify: Nc1scc(CN2CCN(CCc3ccc(Cl)cc3)CC2)c1C(=O)c1ccc(Cl)cc1
bin 2

Please classify: COc1ccc(N2CCN(Cc3csc(N)c3C(=O)c3ccc(Cl)cc3)CC2)cc1
bin 3

Please classify: Nc1scc(CN2CCC(c3ccc(Cl)cc3)CC2)c1C(=O)c1ccc(Cl)cc1
bin 2

Please classify: Nc1scc(CN2CCN(c3cccc(C(F)(F)F)c3)CC2)c1C(=O)c1ccc(Cl)cc1
bin 1

Please classify: Nc1scc(CN2CCN(Cc3ccc(F)cc3)CC2)c1C(=O)c1ccc(Cl)cc1
bin 2

Please classify: CC(C)N1CCN(Cc2csc(N)c2C(=O)c2ccc(Cl)cc2)CC1
bin 3

Please classify: Nc1scc(CN2CCN(c3cccc(F)c3F)CC2)c1C(=O)c1ccc(Cl)cc1
bin 1

Please classify: Nc1scc(CN2CCN(c3ccccc3F)CC2)c1C(=O)c1ccc(Cl)cc1
bin 3

Please classify: Nc1scc(CN2CCN(c3ccccc3Cl)CC2)c1C(=O)c1ccc(Cl)cc1
bin 3

Please classify: Nc1scc(CN2CCN(c3ccc(F)c(F)c3)CC2)c1C(=O)c1ccc(Cl)cc1
bin 1

Please classify: Nc1scc(CN2CCN(CC(=O)c3ccc(Cl)cc3)CC2)c1C(=O)c1ccc(Cl)cc1
bin 2

Please classify: Nc1scc(CN2CCN(c3c(F)cc(F)cc3F)CC2)c1C(=O)c1ccc(Cl)cc1
bin 2

Please classify: Nc1scc(CN2CCN(c3ccc(OC(F)(F)F)cc3)CC2)c1C(=O)c1ccc(Cl)cc1
bin 2

Please classify: Nc1scc(CN2CCN(CCCc3ccc(Cl)cc3)CC2)c1C(=O)c1ccc(Cl)cc1
bin 2

* * *

What inhibition was measured for each of the following?
Biological target: Adenosine receptor A1 (Homo sapiens) (UniProt P30542)
Sequence (whole entry): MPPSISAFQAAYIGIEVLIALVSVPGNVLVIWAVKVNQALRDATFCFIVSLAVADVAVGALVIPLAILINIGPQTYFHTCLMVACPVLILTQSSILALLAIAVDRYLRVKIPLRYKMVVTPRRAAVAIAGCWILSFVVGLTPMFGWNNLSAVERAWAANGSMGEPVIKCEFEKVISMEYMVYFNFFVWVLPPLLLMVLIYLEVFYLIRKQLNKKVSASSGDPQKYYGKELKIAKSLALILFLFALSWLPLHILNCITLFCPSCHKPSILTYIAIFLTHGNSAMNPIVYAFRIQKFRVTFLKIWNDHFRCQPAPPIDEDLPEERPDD
Assay: Displacement of [3H]DPCPX from recombinant human A1 adenosine receptor expressed in CHO cells at 10 uM after 120 mins by scintillation counting
Format: cell-based
Response body: numeric value in %, unit text excluded.

# query: inhibition of entry Nc1scc(CN2CCN(c3c(F)cccc3F)CC2)c1C(=O)c1ccc(Cl)cc1
1

# query: inhibition of entry CC(C)N1CCN(Cc2csc(N)c2C(=O)c2ccc(Cl)cc2)CC1
0

# query: inhibition of entry Nc1scc(CN2CCN(c3ccc(F)cc3Cl)CC2)c1C(=O)c1ccc(Cl)cc1
0

# query: inhibition of entry Nc1scc(CN2CCN(c3cccc(C(F)(F)F)c3)CC2)c1C(=O)c1ccc(Cl)cc1
0

# query: inhibition of entry Nc1scc(CN2CCN(c3ccc(OC(F)(F)F)cc3)CC2)c1C(=O)c1ccc(Cl)cc1
0

# query: inhibition of entry Nc1scc(CN2CCN(c3ccccc3C(F)(F)F)CC2)c1C(=O)c1ccc(Cl)cc1
0

# query: inhibition of entry Nc1scc(CN2CCN(c3cccnc3)CC2)c1C(=O)c1ccc(Cl)cc1
0

# query: inhibition of entry Nc1scc(CN2CCN(c3ccc(F)cc3F)CC2)c1C(=O)c1ccc(Cl)cc1
1

# query: inhibition of entry Nc1scc(CN2CCN(c3c(Cl)cccc3Cl)CC2)c1C(=O)c1ccc(Cl)cc1
0

# query: inhibition of entry Nc1scc(CN2CCN(c3cc(Cl)ccc3Cl)CC2)c1C(=O)c1ccc(Cl)cc1
0

# query: inhibition of entry Nc1scc(CN2CCN(c3ccc(Cl)c(Cl)c3)CC2)c1C(=O)c1ccc(Cl)cc1
1

# query: inhibition of entry Nc1scc(CN2CCN(c3ccc(F)c(Cl)c3)CC2)c1C(=O)c1ccc(Cl)cc1
0

# query: inhibition of entry Nc1scc(CN2CCN(c3ccc(F)c(F)c3)CC2)c1C(=O)c1ccc(Cl)cc1
0

# query: inhibition of entry Nc1scc(CN2CCN(c3cccc(Cl)c3)CC2)c1C(=O)c1ccc(Cl)cc1
0

# query: inhibition of entry Nc1scc(CN2CCN(CCc3ccc(Cl)cc3)CC2)c1C(=O)c1ccc(Cl)cc1
1

# query: inhibition of entry Nc1scc(CN2CCN(c3cccc(F)c3)CC2)c1C(=O)c1cccc(C(F)(F)F)c1
0

# query: inhibition of entry Nc1scc(CN2CCN(c3ccc(Cl)c(C(F)(F)F)c3)CC2)c1C(=O)c1ccc(Cl)cc1
0

# query: inhibition of entry Nc1scc(CN2CCN(c3cccc4ccccc34)CC2)c1C(=O)c1ccc(Cl)cc1
1

# query: inhibition of entry Nc1scc(CN2CCN(c3ccccc3F)CC2)c1C(=O)c1ccc(Cl)cc1
4

# query: inhibition of entry Nc1scc(CN2CCC(c3ccc(Cl)cc3)CC2)c1C(=O)c1ccc(Cl)cc1
0

* * *

Target: Adenosine receptor A1 (Homo sapiens) (UniProt P30542)
Experiment: Binding affinity to recombinant human A1 adenosine receptor allosteric site expressed in CHO cells assessed as [3H]CCPA Bmax shift at 10 uM after 90 mins relative to control
Assay type: cell-based
Property Label: fold change (FC)
Keep the answer to the number alone.

# query: fold change (FC) of entry Nc1scc(CN2CCN(C3CCCC3)CC2)c1C(=O)c1ccc(Cl)cc1
1.1

# query: fold change (FC) of entry Nc1scc(CN2CCN(c3ccc(F)cc3Cl)CC2)c1C(=O)c1ccc(Cl)cc1
5.2

# query: fold change (FC) of entry Nc1scc(CN2CCN(c3c(F)cccc3F)CC2)c1C(=O)c1cccc(C(F)(F)F)c1
1.1

# query: fold change (FC) of entry Nc1scc(CN2CCN(c3ccc(Cl)c(Cl)c3)CC2)c1C(=O)c1ccc(Cl)cc1
4.6

# query: fold change (FC) of entry Nc1scc(CN2CCN(CC(=O)c3ccc(Cl)cc3)CC2)c1C(=O)c1ccc(Cl)cc1
1.4

# query: fold change (FC) of entry Nc1scc(CN2CCN(c3ccccc3F)CC2)c1C(=O)c1ccc(Cl)cc1
1.1

# query: fold change (FC) of entry Nc1scc(CN2CCN(c3c(F)cccc3F)CC2)c1C(=O)c1ccc(Cl)cc1
6.3

# query: fold change (FC) of entry Nc1scc(CN2CCN(c3cc(Cl)cc(Cl)c3)CC2)c1C(=O)c1ccc(Cl)cc1
5.8

# query: fold change (FC) of entry Nc1scc(CN2CCN(C(=O)c3ccc(Cl)cc3)CC2)c1C(=O)c1ccc(Cl)cc1
1.6

# query: fold change (FC) of entry Nc1scc(CN2CCN(c3ccc(Cl)c(C(F)(F)F)c3)CC2)c1C(=O)c1ccc(Cl)cc1
5.7

# query: fold change (FC) of entry Nc1scc(CN2CCN(c3cccc(Cl)c3Cl)CC2)c1C(=O)c1ccc(Cl)cc1
4.2

# query: fold change (FC) of entry CC(C)N1CCN(Cc2csc(N)c2C(=O)c2ccc(Cl)cc2)CC1
1.1

# query: fold change (FC) of entry Nc1scc(CN2CCN(c3cccnc3)CC2)c1C(=O)c1ccc(Cl)cc1
1.3

# query: fold change (FC) of entry Nc1scc(CN2CCN(c3cccc(F)c3F)CC2)c1C(=O)c1ccc(Cl)cc1
4.8

# query: fold change (FC) of entry Nc1scc(CN2CCN(c3cc(F)cc(F)c3)CC2)c1C(=O)c1ccc(Cl)cc1
6.2

# query: fold change (FC) of entry Nc1scc(CN2CCN(Cc3ccc(F)cc3)CC2)c1C(=O)c1ccc(Cl)cc1
3.7

# query: fold change (FC) of entry Nc1scc(CN2CCN(c3ccc(F)cc3F)CC2)c1C(=O)c1ccc(Cl)cc1
6.1

# query: fold change (FC) of entry Nc1scc(CN2CCN(c3ccc(Cl)cc3Cl)CC2)c1C(=O)c1ccc(Cl)cc1
4.4

# query: fold change (FC) of entry Nc1scc(CN2CCN(CCc3ccc(Cl)cc3)CC2)c1C(=O)c1ccc(Cl)cc1
3.1

# query: fold change (FC) of entry Nc1scc(CN2CCN(c3ccc([N+](=O)[O-])cc3)CC2)c1C(=O)c1ccc(Cl)cc1
1.1
